Provenance of the data: PubChem BioAssay

# ASSAYED SYSTEM: Steroidogenic factor 1 (Homo sapiens) (UniProt Q13285)
# Sequence (Q13285 whole entry, looked up): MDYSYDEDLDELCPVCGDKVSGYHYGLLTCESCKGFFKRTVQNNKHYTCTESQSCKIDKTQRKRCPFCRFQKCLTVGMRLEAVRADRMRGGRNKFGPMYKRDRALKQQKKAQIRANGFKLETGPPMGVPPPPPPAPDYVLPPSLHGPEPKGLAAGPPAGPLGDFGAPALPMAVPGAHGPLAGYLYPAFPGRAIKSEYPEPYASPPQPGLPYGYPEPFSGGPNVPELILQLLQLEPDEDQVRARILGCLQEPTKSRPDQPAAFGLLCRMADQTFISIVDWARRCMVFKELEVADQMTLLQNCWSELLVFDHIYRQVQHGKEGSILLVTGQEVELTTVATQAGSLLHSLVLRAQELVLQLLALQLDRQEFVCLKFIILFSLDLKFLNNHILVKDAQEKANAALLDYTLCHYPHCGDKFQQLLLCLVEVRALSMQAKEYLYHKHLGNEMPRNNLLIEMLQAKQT
# PROTOCOL DESCRIPTION: SF1 (NR5A1) inverse agonists, counter-screen for LRH-1 inverse agonist project, cell-based, luminescence, high throughput (AID 651614);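 also: cells cotransfected with StAR promoter reporter and SF1 expression vector; 0% = vehicle on cells with receptor and 100% = vehicle on cells lacking receptor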
# RUN CONDITIONS: cell-based SF1 luciferase reporter, at 3.6 µM, hits give high values
Active and inactive are the calls of the source. Rule as the data show it: active = inhibition above about 44%; inactive = the rest.
MEASURE NAME: inhibition

Consider the following illustrative entries.
Look up inhibition with Steroidogenic factor 1 (Homo sapiens) (UniProt Q13285) for this compound: Cc1ccc(NC(=O)CSc2nnc(CCCCCNC(=O)OC(C)(C)C)o2)c(C)c1
42.7% (inactive)

Look up inhibition with Steroidogenic factor 1 (Homo sapiens) (UniProt Q13285) for this compound: CC1CCc2nc(NC(=O)CSc3nc4ccccc4o3)sc2C1 (stereo unspecified)
7.34% (inactive)

Look up inhibition with Steroidogenic factor 1 (Homo sapiens) (UniProt Q13285) for this compound: O=C(CCl)Nc1ccc(S(=O)(=O)NC2=NCCCCC2)cc1
61% (active)

Look up inhibition with Steroidogenic factor 1 (Homo sapiens) (UniProt Q13285) for this compound: Cn1nccc1C(=O)NC1CCCc2c1cnn2-c1ccc(C(C)(C)C)cc1 (stereo unspecified)
69.7% (active)

---
Look up inhibition with Steroidogenic factor 1 (Homo sapiens) (UniProt Q13285) for this compound: c1ccc(-c2nc(N3CCCCCC3)c3ccccc3n2)nc1
74.8% (active)

Look up inhibition with Steroidogenic factor 1 (Homo sapiens) (UniProt Q13285) for this compound: CCS(=O)(=O)Nc1cccc(-c2ccc3nnc(-c4cccnc4)n3n2)c1
49.5% (active)

Look up inhibition with Steroidogenic factor 1 (Homo sapiens) (UniProt Q13285) for this compound: c1cncc(-c2nc(N3CCCCCC3)c3ccccc3n2)c1
62.8% (active)

Look up inhibition with Steroidogenic factor 1 (Homo sapiens) (UniProt Q13285) for this compound: COC(=O)C12OCC34C(CC5C(C)=C(O)C(=O)CC5(C)C3C(O)C1O)OC(=O)C(OC(=O)C=C(C)C)C24 (stereo unspecified)
98.5% (active)

Look up inhibition with Steroidogenic factor 1 (Homo sapiens) (UniProt Q13285) for this compound: CS(=O)(=O)N1CCN(c2ccccc2NC(=O)c2cc3ccccc3o2)CC1
33.7% (inactive)

Look up inhibition with Steroidogenic factor 1 (Homo sapiens) (UniProt Q13285) for this compound: COC(=O)CCn1nnc(-c2ccc(C(C)C)cc2)n1
46.7% (active)

Look up inhibition with Steroidogenic factor 1 (Homo sapiens) (UniProt Q13285) for this compound: Cc1ccc(C(=O)Sc2cccccc2=O)cc1
98.6% (active)

Look up inhibition with Steroidogenic factor 1 (Homo sapiens) (UniProt Q13285) for this compound: COc1ccc(-c2cn(-c3ccccc3)c3[n+]2CCS3)cc1
60.6% (active)

Look up inhibition with Steroidogenic factor 1 (Homo sapiens) (UniProt Q13285) for this compound: O=C(Nc1ccc(NC(=O)c2ccc([N+](=O)[O-])o2)cc1Cl)c1ccco1
73% (active)

Look up inhibition with Steroidogenic factor 1 (Homo sapiens) (UniProt Q13285) for this compound: COc1ccc(CCNC(=O)c2cc(-c3ccco3)on2)cc1OC
50.5% (active)

Look up inhibition with Steroidogenic factor 1 (Homo sapiens) (UniProt Q13285) for this compound: CCCc1ccc(-c2ccc(/C=C/C(=O)O)cc2)nc1
76.9% (active)

Look up inhibition with Steroidogenic factor 1 (Homo sapiens) (UniProt Q13285) for this compound: COc1ccccc1-c1nnc2sc(-c3ccc(N(C)C)cc3)nn12
57.1% (active)

###

# ASSAYED SYSTEM: Nuclear receptor subfamily 5 group A member 2 (Homo sapiens) (UniProt O00482)
# Sequence (O00482 whole entry, looked up): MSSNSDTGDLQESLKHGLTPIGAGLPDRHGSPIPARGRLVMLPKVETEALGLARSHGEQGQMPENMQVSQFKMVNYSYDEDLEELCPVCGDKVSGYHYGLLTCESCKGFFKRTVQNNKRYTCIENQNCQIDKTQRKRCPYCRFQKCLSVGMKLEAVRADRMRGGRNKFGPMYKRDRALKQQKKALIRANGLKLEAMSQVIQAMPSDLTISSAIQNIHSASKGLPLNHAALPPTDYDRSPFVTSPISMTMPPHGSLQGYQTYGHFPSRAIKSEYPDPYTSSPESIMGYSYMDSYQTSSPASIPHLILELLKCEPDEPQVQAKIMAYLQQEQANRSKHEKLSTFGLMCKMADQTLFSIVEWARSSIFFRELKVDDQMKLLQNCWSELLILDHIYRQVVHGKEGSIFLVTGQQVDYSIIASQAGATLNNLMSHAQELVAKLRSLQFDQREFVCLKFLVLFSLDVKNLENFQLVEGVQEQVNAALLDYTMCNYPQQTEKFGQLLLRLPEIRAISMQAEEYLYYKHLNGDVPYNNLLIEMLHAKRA
# PROTOCOL DESCRIPTION: LRH-1 (NR5A2) inverse agonists, retest, confirmation, cell-based, luminescence (AID 651613);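 also: HEK293T cells co-transfected with LRH-1 and StAR promoter luciferase reporter; 0% = vehicle wells and 100% = parental cells lacking receptor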
# RUN CONDITIONS: cell-based LRH-1 luciferase reporter, inverse agonism; at 3.6 µM
Active and inactive are the calls of the source. Cut-off read from the data, not from the text of the source: active = inhibition above about 42%; inactive = the rest.
Your reply should match one of these outcome classes. yes (1) for active, no (0) for inactive

Example cases with answers are listed next.
Returns: the outcome recorded for O=C(Nc1ccc2c(c1)CCCN2C(=O)c1ccco1)c1cc([N+](=O)[O-])ccc1Cl in this assay.
no (0)

Returns: the outcome recorded for COCCn1c(SCC(=O)Nc2ccc(C(C)=O)cc2)nnc1-c1ccco1 in this assay.
yes (1)

Returns: the outcome recorded for CCn1c(=O)[nH]c(=O)c2c(N)c(C(=O)c3cc(F)ccc3F)sc21 in this assay.
yes (1)

Returns: the outcome recorded for CCOC(=O)c1sc(N(Cc2ccccc2)C(=O)COC(=O)c2ccc(O)cc2)nc1C in this assay.
yes (1)

Returns: the outcome recorded for Nn1c(SCC(=O)Nc2c(F)cc(F)cc2Br)nnc1C1CCCCC1 in this assay.
no (0)

---
Returns: the outcome recorded for Cc1cc(C)nc(N/N=C/c2ccc([N+](=O)[O-])o2)n1 in this assay.
yes (1)

Returns: the outcome recorded for O=C(Nc1cccc(S(=O)(=O)N2CCCCC2)c1)c1ccc([N+](=O)[O-])o1 in this assay.
yes (1)

Returns: the outcome recorded for CCOC(=O)C1=Nc2ccccc2C1=[N+]=[N-] in this assay.
yes (1)

Returns: the outcome recorded for CCN(CC)CCCNc1nc2ccccc2c2[nH]c3ccc(OC)cc3c12 in this assay.
yes (1)

###

Catalogue of inhibition readings, one per entry.
# ASSAYED SYSTEM: Nuclear receptor coactivator 3 (Homo sapiens) (UniProt Q9Y6Q9)
# Sequence (Q9Y6Q9 whole entry, looked up): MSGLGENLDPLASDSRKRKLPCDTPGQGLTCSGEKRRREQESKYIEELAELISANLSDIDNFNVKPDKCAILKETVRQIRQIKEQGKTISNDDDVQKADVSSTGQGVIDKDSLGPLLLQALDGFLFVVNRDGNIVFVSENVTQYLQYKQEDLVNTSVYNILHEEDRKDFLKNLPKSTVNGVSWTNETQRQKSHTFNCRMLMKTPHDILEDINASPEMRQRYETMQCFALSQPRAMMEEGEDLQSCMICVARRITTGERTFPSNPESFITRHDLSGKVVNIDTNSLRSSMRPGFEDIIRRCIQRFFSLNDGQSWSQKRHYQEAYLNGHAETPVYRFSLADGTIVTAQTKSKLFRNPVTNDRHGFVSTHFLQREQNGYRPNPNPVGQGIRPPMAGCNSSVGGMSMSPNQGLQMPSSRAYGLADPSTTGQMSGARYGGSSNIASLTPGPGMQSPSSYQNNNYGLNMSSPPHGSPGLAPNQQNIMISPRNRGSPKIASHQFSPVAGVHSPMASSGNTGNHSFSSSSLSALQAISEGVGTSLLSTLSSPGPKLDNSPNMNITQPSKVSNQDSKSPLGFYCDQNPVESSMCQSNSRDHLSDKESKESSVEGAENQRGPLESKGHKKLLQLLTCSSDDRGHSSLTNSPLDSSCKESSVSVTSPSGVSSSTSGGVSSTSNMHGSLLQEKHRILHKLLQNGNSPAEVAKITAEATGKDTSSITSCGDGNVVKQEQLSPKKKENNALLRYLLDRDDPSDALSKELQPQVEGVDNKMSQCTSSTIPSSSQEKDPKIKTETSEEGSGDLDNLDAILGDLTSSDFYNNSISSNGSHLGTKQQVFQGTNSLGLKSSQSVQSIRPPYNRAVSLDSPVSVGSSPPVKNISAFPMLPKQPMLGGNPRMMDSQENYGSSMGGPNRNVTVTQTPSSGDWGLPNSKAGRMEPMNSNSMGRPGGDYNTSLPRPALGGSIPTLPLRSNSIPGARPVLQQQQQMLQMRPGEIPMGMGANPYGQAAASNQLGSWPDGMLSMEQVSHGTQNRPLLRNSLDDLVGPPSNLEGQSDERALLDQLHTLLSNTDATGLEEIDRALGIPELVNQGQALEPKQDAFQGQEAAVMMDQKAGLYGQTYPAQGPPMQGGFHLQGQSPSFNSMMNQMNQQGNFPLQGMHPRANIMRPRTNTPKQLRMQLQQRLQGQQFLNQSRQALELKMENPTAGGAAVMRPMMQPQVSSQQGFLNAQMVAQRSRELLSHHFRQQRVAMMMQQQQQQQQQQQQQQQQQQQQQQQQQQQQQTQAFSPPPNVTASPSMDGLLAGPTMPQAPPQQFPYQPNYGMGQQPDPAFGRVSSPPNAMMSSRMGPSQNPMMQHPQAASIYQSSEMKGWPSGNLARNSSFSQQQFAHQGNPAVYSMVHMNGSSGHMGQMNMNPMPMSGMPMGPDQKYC
# PROTOCOL DESCRIPTION: SRC3 coactivator transcriptional activity inhibitors, confirmation, cell-based, luminescence, quadruplicate (AID 588792);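 also: 0% = DMSO treated cells and 100% = gossypol at 36 µM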
# RUN CONDITIONS: HEK293 GAL4-SRC3 luciferase reporter, at 3.6 µM, hits give high values
Answer format: numeric, % implied, no suffix.

Consider the following illustrative entries.
Tell me the measured inhibition of CCOc1c(Br)cc(CNC2CCCCCCC2)cc1OC , please.
-5.01

Tell me the measured inhibition of COc1ccc(-c2cc(C(=O)N3CCN(c4ncccn4)CC3)c3ccccc3n2)c(OC)c1 , please.
0.79

Tell me the measured inhibition of CC(=O)N1CCN(c2ccc(Oc3ncnc4sccc34)cc2)CC1 , please.
25.7

Tell me the measured inhibition of COc1cc(C=CC(=O)c2ccccc2)cc(OC)c1OC , please.
28.4

---
Tell me the measured inhibition of COc1ccc2c(c1OC)C(=O)N1c3ccccc3C(=O)N(c3ccc(F)cc3)C21 (stereo not drawn) , please.
7.69

Tell me the measured inhibition of O=C(N/N=C/c1ccc(O)cc1O)c1ccc(NC(=O)C2CCCCC2)cc1 , please.
9.15

Tell me the measured inhibition of O=C(NCCc1cn2ccccc2n1)c1cc(COc2ccc3ncccc3c2)on1 , please.
-5.01

Tell me the measured inhibition of CC1CCC(C(C)C)C(OC(=O)Cn2c(-c3ccc(F)cc3)[n+](C)c3ccccc32)C1 (stereo not drawn) , please.
69.1

Tell me the measured inhibition of Cc1ccc(-n2c(C)cc(C(=O)COc3cccnc3[N+](=O)[O-])c2C)cc1 , please.
34.5

Tell me the measured inhibition of Cc1ccc(S(=O)(=O)C(C#N)c2nc3ccccc3nc2N2CCN(C)CC2)cc1 (stereo not drawn) , please.
19.1

Tell me the measured inhibition of CCOC(=O)c1ccccc1OC(=O)NNc1ccccc1 , please.
15.6

Tell me the measured inhibition of COc1cccc(/C=N/Nc2ncnc3scc(-c4ccccc4)c23)c1O , please.
83.3

###

Catalogue of inhibition readings, one per entry.
# ASSAYED SYSTEM: Nuclear receptor subfamily 5 group A member 2 (Homo sapiens) (UniProt O00482)
# PROTOCOL DESCRIPTION: LRH-1 (NR5A2) inverse agonists, retest, confirmation, cell-based, luminescence (AID 651613);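 also: HEK293T cells co-transfected with LRH-1 and StAR promoter luciferase reporter; 0% = vehicle wells and 100% = parental cells lacking receptor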
# RUN CONDITIONS: cell-based LRH-1 luciferase reporter, inverse agonism; at 3.6 µM; hits give high values
Answer format: numeric, % implied, no suffix.

Look up inhibition with Nuclear receptor subfamily 5 group A member 2 (Homo sapiens) (UniProt O00482) for this compound: COc1ccc(-c2noc(CCCC(=O)NC3CCCC3)n2)cc1
59.7

---
Look up inhibition with Nuclear receptor subfamily 5 group A member 2 (Homo sapiens) (UniProt O00482) for this compound: CC1CCCC(C)N1C(=O)COC(=O)Cc1ccc(Cl)cc1 (stereo not drawn)
51.2

Look up inhibition with Nuclear receptor subfamily 5 group A member 2 (Homo sapiens) (UniProt O00482) for this compound: O=[N+]([O-])c1cccc(-c2ccc(/C=N/NC(=S)NCc3ccco3)o2)c1
48.5

###

# ASSAYED SYSTEM: Nuclear receptor subfamily 5 group A member 2 (Homo sapiens)
# PROTOCOL DESCRIPTION: LRH-1 (NR5A2) inverse agonists, retest, confirmation, cell-based, luminescence (AID 651613);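 also: HEK293T cells co-transfected with LRH-1 and StAR promoter luciferase reporter; 0% = vehicle wells and 100% = parental cells lacking receptor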
# RUN CONDITIONS: cell-based LRH-1 luciferase reporter, inverse agonism; at 3.6 µM; hits give high values
Catalogue of inhibition readings, one per entry.
Answer format: numeric, % implied, no suffix.

Consider the following illustrative entries.
Tell me the measured inhibition of O=C(CSc1nccc(=O)[nH]1)Nc1ccc(N2CCOCC2)cc1 , please.
61.3

Tell me the measured inhibition of CCN(CC(=O)Nc1ccc(NC(C)=O)cc1)C(=O)C1(c2ccc(Cl)cc2)CCC1 , please.
40.1

Tell me the measured inhibition of Cc1c(C(C)C)c(=O)n(-c2ccc(S(=O)(=O)NC3CCCCC3)cc2)n1C , please.
60.6

Lab note: next molecule to report on.
Tell me the measured inhibition of CC(=O)C1=C(c2cccc([N+](=O)[O-])c2)N(C(C)=O)n2c(C)nnc2S1 , please.
58.4
